system: human pulmonary artery smooth muscle cell (PASMC); test: PDGF-induced proliferation assay, PASMC (PrxII siRNA); assay type: cell-based; settings: 2.5 nM, PDGF-BB 25 ng/mL, percent of untreated control
quantity: Degree of PASMC proliferation (%)
Numbers only here, please. The scale is %.

CN1C(=O)C2(C)SSCC1C(=O)N2C (stereo not shown) [Compound 1]: 70.8
CN1CCN2C(=O)C3CSSC2(C1)C(=O)N3Cc1ccccc1 (stereo not shown) [Compound 21]: 69.9

Dear colleague, please send me the reported Degree of PASMC proliferation for CCN1C(=O)C2(C)SSCC1C(=O)N2CC (stereo not shown) [Compound 20] when you can. 82.2

Dear colleague, please send me the reported Degree of PASMC proliferation for CCN1C(=O)C23COCCN2C(=O)C1CSS3 (stereo not shown) [Compound 10] when you can. 90.5

Dear colleague, please send me the reported Degree of PASMC proliferation for CN1C(=O)C2CSSC1(C)C(=O)N2Cc1ccc2ccccc2n1 (stereo not shown) [Compound 5] when you can. 71.3

Dear colleague, please send me the reported Degree of PASMC proliferation for O=C1C2CSSC3(COCCN13)C(=O)N2Cc1ccccc1 (stereo not shown) [Compound 8] when you can. 57.7

Dear colleague, please send me the reported Degree of PASMC proliferation for CN1CCN2C(=O)C3CSSC2(C1)C(=O)N3C (stereo not shown) [Compound 23] when you can. 70.8
